Assay: Average area under curve for the compound at 10 mg/kg dose after intraduodenal administration to rat
Conditions: in vivo
METRIC_NAME: AUC (ng·h/mL)

Recorded AUC, per entry:
Query block: Look up AUC for this compound: CCCC[C@H](N[C@@H](Cc1ccccc1)C(=O)N1CCC(OCOC)CC1)C(=O)N[C@@H](CC1CCCCC1)[C@@H](O)C[C@H](C(=O)NCCNc1n[nH]c(N)n1)C(C)C
Result block: 94.8

Query block: Quick check: AUC of CCCC[C@H](N[C@@H](Cc1ccccc1)C(=O)N1CCC(OCOC)CC1)C(=O)N[C@@H](CC1CCCCC1)[C@@H](O)C[C@H](C(=O)NCc1ccncc1)C(C)C ?
Result block: 760

Query block: What does the data say about its AUC? Entry: CCCC[C@H](N[C@@H](Cc1ccccc1)C(=O)N1CCC(OCOC)CC1)C(=O)N[C@@H](CC1CCCCC1)[C@@H](O)C[C@H](C(=O)NCC(C)(C)N1CCOCC1)C(C)C
Result block: 763

(P) CCCC[C@H](N[C@@H](Cc1ccccc1)C(=O)N1CCC(OCOC)CC1)C(=O)N[C@@H](CC1CCCCC1)[C@@H](O)C[C@H](C(=O)NCCC1CCCCC1)C(C)C
(Q) CCCC[C@H](N[C@@H](Cc1ccccc1)C(=O)N1CCC(OCOC)CC1)C(=O)N[C@@H](CC1CCCCC1)[C@@H](O)C[C@H](C(=O)NCc1ccccn1)C(C)C
Query block: Thinking about recorded AUC values, which is higher, P or Q ? Answer by stating the label of the chosen item.
Result block: Q

---

System: Canis familiaris
Experiment: Mean arterial pressure response following 1 mg/kg intravenous administration to salt depleted dog
Conditions: in vivo
METRIC_NAME: Arterial pressure (% mmHg min)

# count of solved cases: 2
Query block: Which Arterial pressure value is on record for CCCC[C@H](N[C@@H](Cc1ccccc1)C(=O)N1CCC(OCOC)CC1)C(=O)N[C@@H](CC1CCCCC1)[C@@H](O)C[C@H](C(=O)NCCCN1CCOCC1)C(C)C ?
Result block: 8356

Query block: I have this molecule here, CCCC[C@H](N[C@@H](Cc1ccccc1)C(=O)N1CCC(OCOC)CC1)C(=O)N[C@@H](CC1CCCCC1)[C@@H](O)C[C@H](C(=O)NCCC[N+]1([O-])CCOCC1)C(C)C , and I need its recorded Arterial pressure.
Result block: 3707

(1) CCCC[C@H](N[C@@H](Cc1ccccc1)C(=O)N1CCC(OCOC)CC1)C(=O)N[C@@H](CC1CCCCC1)[C@@H](O)C[C@H](C(=O)NCC(C)(C)N1CCOCC1)C(C)C
(2) CCCC[C@H](N[C@@H](Cc1ccccc1)C(=O)N1CCC(OCOC)CC1)C(=O)N[C@@H](CC1CCCCC1)[C@@H](O)C[C@H](C(=O)NCCN1CCOCC1)C(C)C
Query block: From the recorded data, which exceeds the other in Arterial pressure: 1 or 2 ? Select an item and report its label.
Result block: 1

---

Assay: Average peak plasma concentration of compound after 10 mg/kg intraduodenal administration to rat
Settings: plasma
METRIC_NAME: Cmax (ng/mL)

These solved cases illustrate the format of a correct answer.
Query block: Field request: Cmax | item: CCCC[C@H](N[C@@H](Cc1ccccc1)C(=O)N1CCC(OCOC)CC1)C(=O)N[C@@H](CC1CCCCC1)[C@@H](O)C[C@H](C(=O)NCc1ccncc1)C(C)C
Result block: 460

Query block: Given the entry CCCC[C@H](N[C@@H](Cc1ccccc1)C(=O)N1CCC(OCOC)CC1)C(=O)N[C@@H](CC1CCCCC1)[C@@H](O)C[C@H](C(=O)NCC(C)(C)N1CCOCC1)C(C)C , report its measured Cmax.
Result block: 600

Query block: Requested field: Cmax. Item: CCCC[C@H](N[C@@H](Cc1ccccc1)C(=O)N1CCC(OCOC)CC1)C(=O)N[C@@H](CC1CCCCC1)[C@@H](O)C[C@H](C(=O)NCc1ccccn1)C(C)C
Result block: 4570

Query block: Which Cmax value is on record for CCCC[C@H](N[C@@H](Cc1ccccc1)C(=O)N1CCC(OCOC)CC1)C(=O)N[C@@H](CC1CCCCC1)[C@@H](O)C[C@H](C(=O)NCC(C)(C)NCCO)C(C)C ?
Result block: 80

Query block: For the compound shown here, CCCC[C@H](N[C@@H](Cc1ccccc1)C(=O)N1CCC(OCOC)CC1)C(=O)N[C@@H](CC1CCCCC1)[C@@H](O)C[C@H](C(=O)NCCNc1n[nH]c(N)n1)C(C)C , give the reported Cmax.
Result block: 190

Query block: I am curious: what Cmax value has been reported for CCCC[C@H](N[C@@H](Cc1ccccc1)C(=O)N1CCC(OCOC)CC1)C(=O)N[C@@H](CC1CCCCC1)[C@@H](O)C[C@H](C(=O)NCCC1CCCCC1)C(C)C ?
Result block: 30

(I) CCCC[C@H](N[C@@H](Cc1ccccc1)C(=O)N1CCC(OCOC)CC1)C(=O)N[C@@H](CC1CCCCC1)[C@@H](O)C[C@H](C(=O)NCCN1CCCCC1)C(C)C
(II) CCCC[C@H](N[C@@H](Cc1ccccc1)C(=O)N1CCC(OCOC)CC1)C(=O)N[C@@H](CC1CCCCC1)[C@@H](O)C[C@H](C(=O)NCCC[N+]1([O-])CCOCC1)C(C)C
Query block: Pick one: I or II . Which has the bigger Cmax number? I would appreciate it if you answered with the label of your choice.
Result block: I

The measurements presented in this section are drawn from ChEMBL document CHEMBL1127457.
